# SYSTEM_UNDER_TEST: KIF25; also: reference of the scale not given here
# MEASUREMENT_DESCRIPTION: pooled miR-30 sensor sort-seq; sequence = guide strand
# CONDITION_LABEL: shRNA
QUANTITY_MEASURED: sensor-assay potency score (higher = more potent)
The reply should be a number, written without any unit.

Examples with answers:
TAACACAAACATTGTACCCATC: -0.837
TAATTCCTAAGTCACTCTGTGG: -1.49
TAACTTCGCATCGCCTCCGAGG: -1.63
TTGTAAACTTCCACTATGGAGA: -0.609
TATAGCTCTTTCCGCTGCCCGT: -1.1
TAGAGTCACCGTAATTATCAGG: -1.12

Which sensor-assay potency score (higher = more potent) reading was recorded for the sequence `AACCTCTGTCCGTCCATCCTTG` ?
-0.841

Which sensor-assay potency score (higher = more potent) value belongs to `ATAACACAAACATTGTACCCAT` ?
0.237

Source: the OligoGym collection
